experiment: Stability in liver microsomes, rat
# Trep Concentration 30 min annotations

molecule	Trep Concentration 30 min
CCCCCC(CCC1C(OC(=O)CC)CC2Cc3c(cccc3OCC(=O)O)CC21)OC(=O)CC (centres unmarked) [Prodrug LXX, treprostinil dipropionate]	0.653 µM
CCCCCC(CCC1C(O)CC2Cc3c(cccc3OCC(=O)O)CC21)OC(=O)C(C)C (centres unmarked)	0.471 µM
CCCCCC(CCC1C(O)CC2Cc3c(cccc3OCC(=O)O)CC21)OC(=O)C(C)(C)C (centres unmarked)	0.009 µM
CCCCCC(CCC1C(O)CC2Cc3c(cccc3OCC(=O)O)CC21)OC(=O)COc1ccccc1 (centres unmarked)	0.888 µM
CCCCCC(CCC1C(O)CC2Cc3c(cccc3OCC(=O)O)CC21)OC(=O)CCN (centres unmarked)	0 µM

Entry under review: CCCCCC(CCC1C(O)CC2Cc3c(cccc3OCC(=O)O)CC21)OC(=O)CC (centres unmarked) . Reported Trep Concentration 30 min?
0.586 µM

CCCCCC(CCC1C(O)CC2Cc3c(cccc3OCC(=O)O)CC21)OC(=O)COc1ccc(OC(F)(F)F)cc1 (centres unmarked) ?
0.902 µM

CCCCCC(CCC1C(O)CC2Cc3c(cccc3OCC(=O)O)CC21)OC(=O)c1ccc(C)cc1 (centres unmarked) ?
0.0909 µM
